B1: OR4K15 (parent)
chain: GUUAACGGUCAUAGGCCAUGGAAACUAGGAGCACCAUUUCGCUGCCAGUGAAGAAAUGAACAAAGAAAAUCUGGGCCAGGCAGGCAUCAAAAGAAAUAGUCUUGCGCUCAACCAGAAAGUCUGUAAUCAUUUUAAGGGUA

# Variants of: B1
# test_summary: self-cleavage, relative activity (ratio to wild type); higher = more cleavage; in vitro, sequencing; the parent is a self-cleaving ribozyme
What self-cleavage was measured for each of the following?
Give the figure only, with no unit attached.

# query: self-cleavage of entry A22C A96G
2.53

Query U26A G115U next
0.13

Quick one: U38A A47G
1.59

Field entry: A47U U49C
0.36

Check A117U U133C too.
1.23

Note, next up: U12C
1.01

Repeat with U124C U127C
0.84

Can you handle A51G G83U next?
0.7

Again, but for U97C U131C
0.72

Cool, now G14A A92G
0.96

Now try A13U A60G .
0.32

Please do the same for A24C A118C as well.
0.84

Next variant: A55G A86G
1.17

Also G21A A33U ?
2.16

// same read-out, input: A63G U127A
1.47

Another variant to check: C17U G83A
1.07

Try this variant too: U12A U38G
1.9

What about this variant? A55G U108G
0.03

Proceed to A33U A66U
1.62

Same thing, different variant: C40U A55G
1.67

Then what about the variant A51G A66G ?
1.5
